System: P. falciparum isolates
assay_details: 48 hour parasite lactate dehydrogenase (48 hr pLDH) drug sensitivity assay after transport from the field on ice in BAM
Type: cell-based
conditions_used: Plasmodium falciparum, 24 h, isolate H107, 1 day in transit
Description: Malaria parasites fail to thrive after removal from the patient. They can be preserved either by cryopreservation in liquid nitrogen or storage at −70° C. These techniques used for long term storage are too labor-intensive and expensive for routine use. […] Transit time can vary between a few hours to less than a week. Because of the clinical demand for such a service, BAM was evaluated in the field as a transport medium for malaria parasites.
property: IC50 (nM)
Answer format: numeric, nM implied, no suffix.

Task: Query IC50 on P. falciparum isolates for CCN(CC)CCCC(C)Nc1ccnc2cc(Cl)ccc12 (stereo not shown)
Output: 180

Recorded values, source patent US7993917B2.
